Hello, the source for this data is patent US20220213181A1, in case you need it.

Measured Kd by item
- MEASURED TARGET: T1, Cynomolgus monkey ANGPTL4(26-406)-FLAG-His6-Avi (cynomolgus monkey, biotin on the C-terminal Avi tag (BirA) where the protein is immobilised)
- T1 construct: also called Cyno ANGPTL4 (26-406)
- T1 chain: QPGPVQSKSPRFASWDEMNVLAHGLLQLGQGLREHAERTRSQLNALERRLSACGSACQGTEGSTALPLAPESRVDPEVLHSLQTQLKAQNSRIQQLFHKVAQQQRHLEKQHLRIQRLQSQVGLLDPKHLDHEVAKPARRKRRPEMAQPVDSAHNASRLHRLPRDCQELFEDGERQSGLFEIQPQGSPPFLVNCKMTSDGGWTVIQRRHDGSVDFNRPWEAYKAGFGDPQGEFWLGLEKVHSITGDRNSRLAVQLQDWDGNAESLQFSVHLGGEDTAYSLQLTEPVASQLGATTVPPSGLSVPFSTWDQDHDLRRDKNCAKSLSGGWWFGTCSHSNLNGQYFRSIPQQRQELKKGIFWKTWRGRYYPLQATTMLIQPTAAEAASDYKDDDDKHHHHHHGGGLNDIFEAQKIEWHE
- TEST NAME: SET (solution equilibrium titration), MSD detection, IgG
// units = nM; emit number, no label

[
  {
    "BINDER": "NEG310 (antibody, human IgG1, kappa, V domains shown, humanized, hIgG1/kappa, parental antibody 17B1) VH: QVQLVQSGAEVKKPGASVKVSCKASGYTFTSYTMHWVRQAPGQGLEWMGYINPSSGYTKYNQKFQGRVTMTADKSTSTAYMELSSLRSEDTAVYYCAEGWLLLAMDYWGQGTLVTVSS VL: EAVVTQSPATLSLSPGERATLSCRSSTGAVTTSNYAIWVQEKPGQAPRGLIGGTNNRAPGIPARFSGSLSGDDATLTISSLQPEDFAVYFCALWYSDHWVFGQGTKVEIKR",
    "ENDPOINT UNIT": "nM",
    "Kd": 0.022
  },
  {
    "BINDER": "NEG313 (antibody, human IgG1, kappa, V domains shown, humanized, hIgG1/kappa, parental antibody 37P1) VH: QVQLVQSGAEVKKPGASVKVSCKASGYTFNNYWITWVRQAPGQGLEWMGDFYPGGGSTNYNAKLQGRVTLTVDTSTSTAYMELRSLRSDDTAVYYCARSPPQVAPFDYWGQGTLVTVSS VL: DIQMTQSPSSLSASVGDRVTITCQASDYIYHWLGWYQQKPGKAPKLLISGASGLETGVPSRFSGSGSGKDYTFTISSLQPEDIATYYCQQYWSTPWTFGQGTKLEIKR",
    "ENDPOINT UNIT": "nM",
    "Kd": 0.015
  }
]

// next entry
QUERY: # get_value(readout='Kd', item= NEG318 (antibody, human IgG1, kappa, V domains shown, humanized, hIgG1/kappa, parental antibody 14P18) VH: QVQLVQSGAEVKKPGASVKVSCKASGYTFTSFWITWVRQAPGQGLEWMGDIYPGGATTNYNEKLQGRVTLTVDTSTSTAYMELRSLRSDDTAVYYCARSPPQVGPFDYWGQGTLVTVSS VL: DIQMTQSPSSLSASVGDRVTITCQASDYIYHWLAWYQQKPGKAPKLLISGASSLETGVPSRFSGSGSGKDYTFTISSLQPEDIATYYCQQYWSIPWTFGQGTKLEIKR )
RESULT: 0.017
